# TESTED_ON: T1, HLA-A*24:02 on T2-A24 cells (human, UniProt P04439-2 25-302 at identity 0.92))
# T1 construct: whole, on cells; Empty MHC class I on the cell surface that is stabilized by an added peptide; the text gives HLA-A*24:02
# T1 MHC heavy: not shown
# ASSAY_DETAILS: MHC class I expression stabilization test on T2-A24 cells, peptide 100 µg/mL, FITC anti-HLA-A24 (17A10), flow cytometry
Quick reference for mean fluorescence intensity (MFI) solvent ratio among some binders

BINDER: MAYDRFVAV (Synthetic peptide) [OR7C1-derived peptide represented by SEQ ID No: 5, OR7C1 (118-126)]
TEST_RESULT: 2.4 ratio to solvent

Bench note: what mean fluorescence intensity (MFI) solvent ratio did MYLVTFTGNLL (Synthetic peptide) [OR7C1-derived peptide represented by SEQ ID No: 6, OR7C1 (34-44)] show? 5.1 ratio to solvent

Bench note: what mean fluorescence intensity (MFI) solvent ratio did VMYTMVTPML (Synthetic peptide) [OR7C1-derived peptide represented by SEQ ID No: 4, OR7C1 (276-285)] show? 2.4 ratio to solvent

Bench note: what mean fluorescence intensity (MFI) solvent ratio did VMAYDRFVAV (Synthetic peptide) [OR7C1-derived peptide represented by SEQ ID No: 3, OR7C1 (117-126)] show? 2 ratio to solvent
